- STATED_CONDITIONS: 328.15 K; 101.33 kPa; Liquid
ASSAY_METRIC: mass density (kg/m3)
Respond numerically; units are kg/m3 and should not be typed.

Prompt: Given CCCC(=O)OCC [ethyl butanoate] , state its recorded mass density.
Completion: 854.44

Prompt: Now this one: CCCCOC(=O)CCC [butyl butanoate]
Completion: 848.01

Prompt: Follow-up entry: CC/C=C\CCOC(=O)C(C)C [cis-3-hexenyl isobutyrate]
Completion: 852.44

Prompt: Repeat for the following compound: CCCCOC(C)=O [butyl ethanoate]
Completion: 850.78

====

Readings of viscosity for the listed compounds
- STATED_CONDITIONS: 333.15 K; 101.33 kPa; Liquid; Falling or rolling sphere viscometry
Structures can show the parent of a compound that is named as a salt.
Record the value in mPa·s, omitting the unit from your answer.

Prompt: Name the reported viscosity value associated with the compound CCOC(=O)CC [ethyl propanoate]
Completion: 0.344

Prompt: Continue with CCCCOC(=O)CCC [butyl butanoate]
Completion: 0.548

Prompt: Another compound: CC/C=C\CCOC(=O)C(C)C [cis-3-hexenyl isobutyrate]
Completion: 0.56

Prompt: Input CCC/C=C/COC(C)=O [(E)-2-hexenyl acetate]
Completion: 0.514

Prompt: Here is the next compound: CC/C=C\CCOC(C)=O [(Z)-3-hexenyl acetate]
Completion: 0.509

Prompt: What would you report for CCCCCC(=O)OCC [ethyl hexanoate] ?
Completion: 0.482

Prompt: Another compound: CC/C=C\CCOC=O [(Z)-3-hexenyl formate]
Completion: 0.38

Prompt: Moving on to CCCC(=O)OCCC(C)C [3-methylbutyl butanoate]
Completion: 0.609

Prompt: What would you report for CCCCCCOC(C)=O [hexyl ethanoate] ?
Completion: 0.649

Prompt: One more compound: CCOC(=O)CC(C)C [ethyl 3-methylbutanoate]
Completion: 0.485

Prompt: Next entry: CCCCOC(C)=O [butyl ethanoate]
Completion: 0.428

Prompt: Item: CCOC(C)=O [ethyl acetate]
Completion: 0.301

====

- STATED_CONDITIONS: 313.15 K; 101.33 kPa; Liquid
ASSAY_METRIC: mass density (kg/m3)
Write the answer as a number in kg/m3, unit excluded.

CCCC(=O)OCC [ethyl butanoate] : 864.31
CC/C=C\CCOC(=O)C(C)C [cis-3-hexenyl isobutyrate] : 865.22
CCCCOC(=O)CCC [butyl butanoate] : 858.94
CCCCCCOC(=O)CCC [hexyl butanoate] : 837.46

Prompt: Quick one: mass density for CCCCCCOC(C)=O [hexyl ethanoate] ?
Completion: 854.9

====

- STATED_CONDITIONS: 343.15 K; 101.33 kPa; Liquid; Falling or rolling sphere viscometry
Structures can show the parent of a compound that is named as a salt. ± gives the expanded uncertainty stated by the source.
Reported viscosity values for a set of compounds
Write the numeric value and follow it with the unit.

Some solved cases for reference:
CCOC(=O)CC(C)C [ethyl 3-methylbutanoate] : 0.431 ± 0.009 mPa·s
CCCC(=O)OCCC(C)C [3-methylbutyl butanoate] : 0.545 ± 0.01 mPa·s
CCOC(=O)C(C)CC (stereo not drawn) [ethyl 2-methylbutanoate] : 0.452 ± 0.009 mPa·s

Prompt: For CC/C=C\CCOC=O [(Z)-3-hexenyl formate] , what is its reported viscosity?
Completion: 0.346 ± 0.01 mPa·s

Prompt: What about CCOC(C)=O [ethyl acetate] ?
Completion: 0.275 ± 0.008 mPa·s

Prompt: Likewise for CC(=O)OCCC(C)C [3-methylbutyl ethanoate] ?
Completion: 0.481 ± 0.009 mPa·s
